Data credit: paper PMC11679724

# Measurement Target: human recombinant aldose reductase (Homo sapiens, UniProt P15121)
# Measurement Description: In vitro aldose reductase inhibition assay (DL-glyceraldehyde substrate)
# Type: biochemical
# Condition Summary: mean ± SE; DL-glyceraldehyde 5 mM
Value Kind: IC50 (µM)

*Q* State the recorded IC50 for this entry: CCN/C(=N\NC(=O)COc1ccnc2ccccc12)C(C#N)C(=O)Nc1ccc(C(C)=O)cc1 (centres unmarked)
*A* 25.7

(I) N#CC(C(=O)Nc1ccc(C(N)=O)cc1)C(=NNC(=O)COc1ccc2ccccc2c1)Nc1ccccc1 (centres unmarked)
(II) CS/C(Nc1ccccc1)=C(\C#N)C(=O)Nc1ccc(C(N)=O)cc1
*Q* Record comparison, field IC50: mark the lower of I and II . When you have decided, please share the label of that item.
*A* I
